growth inhibition reference
# assay-comment: NCI Yeast Anticancer Drug Screen. Data for the sgs1 mgt1 strain (AID 161);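 also: 0% = growth of cultures given vehicle only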
# assay-context: S. cerevisiae sgs1 mgt1 strain, at 50.0 µM, stronger effect = higher value
The panel holds about 79,000 compounds, 15% with a hit somewhere; the sample as a whole holds those more often.
The response must be a number in % with no trailing unit.

[
  {
    "compound": "Cc1cc(N2CCCCC2)nc2ccc(Cc3ccc4nc(N5CCCCC5)cc(C)c4c3)cc12",
    "growth inhibition [%]": -27.9
  },
  {
    "compound": "C/C=C(\\CC)C(C#N)(CCC)C(=O)OCC (stereo unspecified)",
    "growth inhibition [%]": -21.2
  },
  {
    "compound": "CC(=O)OC1CCC23COC(CC(C)C2C)C3(Cl)C1 (stereo unspecified)",
    "growth inhibition [%]": -3.25
  },
  {
    "compound": "CCCCCCCCSC1=NS(=O)(=O)c2ccccc21",
    "growth inhibition [%]": 44.5
  },
  {
    "compound": "CC(=O)N(CCc1ccccc1)C(C)(C#N)c1ccccc1 (stereo unspecified)",
    "growth inhibition [%]": -30.9
  }
]

Look up growth inhibition for this compound: CC1(c2ccccc2)OCCCO1
-10.8

Which growth inhibition is reported for this compound? O=NN(C(=O)NCCCl)c1[nH]c(=O)ncc1I
-13.9

# query: growth inhibition of entry COc1ccc2cc(C(=O)Nc3ccc(O)c(C(=O)O)c3)ccc2c1OC
-7.6

growth inhibition for O=c1[nH]c(=O)c2ncn(-c3ccc(Cl)cc3)c2[nH]1 ?
7.1

# growth inhibition lookup, item CCCC(N)S(=O)(=O)O (stereo unspecified)
-23.9

# lookup: growth inhibition of NCCSCCN
-4.65

# get_value(readout='growth inhibition', item= CCC1CC(=O)NC(=O)NC1=O (stereo unspecified) )
-3.75

# input compound: OCCN(CCO)c1ncnc2c1ncn2CCc1ccccc1 ; wanted: its growth inhibition
16.2

What does the record list as growth inhibition for Nc1c(Cl)cc2c(c1Br)Cc1cc(F)ccc1-2 ?
-3.55

growth inhibition lookup needed for Cc1cc(Cl)ccc1NC(=O)C(=O)Cc1nc2ccc(C(=O)c3ccccc3)cc2[nH]c1=O , thanks.
-4.85

Please give the measured growth inhibition for this compound: Cc1cc(C)c(NC(=O)NC2CCCCC2)cc1C
4.15
